# Species on record: Rattus norvegicus
# ASSAY_NAME: Open TG-GATES - Regimen: Single
# Format: toxicity, organism-based, Sprague-Dawley
# Design: regimen Single, gender Male, age 6 weeks
# RUN_CONDITIONS: in vivo, po, 0 mg/kg, 3 h, tissue Plasma, route gavage, dose level Control
MEASUREMENT_LABEL: ALT

- Cc1ccc2cc3c(ccc4ccccc43)c3c2c1CC3 [3-METHYLCHOLANTHRENE]: 46.2 IU/L
- Cn1cc[nH]c1=S [METHIMAZOLE]: 44.4 IU/L
- Cc1cccc(C)c1OCC(C)N (stereo not drawn) [MEXILETINE]: 45.2 IU/L

====

# Species: Rattus norvegicus
# ASSAY_NAME: Open TG-GATES - Regimen: Single
# Assay type: toxicity, organism-based, Sprague-Dawley
# Set-up: regimen Single, gender Male, age 6 weeks
# RUN_CONDITIONS: in vivo, po, 0 mg/kg, 3 h, tissue Blood, route gavage, dose level Control
# MCHC per record follows
MEASUREMENT_LABEL: MCHC (%)

* OCCN1CCN(CCCN2c3ccccc3Sc3ccc(C(F)(F)F)cc32)CC1 | 33
* CCOC(=O)C(C)(C)Oc1ccc(Cl)cc1 [CLOFIBRATE] | 34.9
* C[C@H]1C(=O)O[C@@H]2CCN3CC=C(COC(=O)[C@](C)(O)[C@]1(C)O)[C@H]23 | 34.2
* Cn1cc[nH]c1=S | 35.1

====

# Species: Rattus norvegicus
# ASSAY_NAME: Open TG-GATES - Regimen: Daily Repeat
# Assay type: toxicity, organism-based, Sprague-Dawley
# Parameters: regimen Daily Repeat, gender Male, age 6 weeks
# RUN_CONDITIONS: in vivo, po, 0 mg/kg, […], tissue Plasma, route gavage, dose level Control, time 14 day
MEASUREMENT_LABEL: PL (mg/dL)

* Cc1cccc(C)c1OCC(C)N (centres undefined) | 147.8
* O=[N+]([O-])c1ccc(O)c([N+](=O)[O-])c1 | 151.4
* OCCN1CCN(CCCN2c3ccccc3Sc3ccc(C(F)(F)F)cc32)CC1 | 166
* Cn1cc[nH]c1=S | 158.6

====

# Organism: Rattus norvegicus
# ASSAY_NAME: Open TG-GATES - Regimen: Daily Repeat
# Type: toxicity, organism-based, Sprague-Dawley
# Set-up: regimen Daily Repeat, gender Male, age 6 weeks
# RUN_CONDITIONS: in vivo, po, 0 mg/kg, 72 h, tissue Plasma, route gavage, dose level Control, time 3 day
MEASUREMENT_LABEL: LDH (IU/L)

• C[C@H]1O[C@H](O[C@H]2[C@H](O)[C@@H](O)[C@@H](O[C@H]3[C@H](O)[C@@H](O)C(O)O[C@@H]3CO)O[C@@H]2CO)[C@H](O)[C@@H](O)[C@@H]1N[C@H]1C=C(CO)[C@@H](O)[C@H](O)[C@H]1O (some centres undefined) [ACARBOSE] = 86.2
• Cn1cc[nH]c1=S [METHIMAZOLE] = 187.8
• C[C@H]1C(=O)O[C@@H]2CCN3CC=C(COC(=O)[C@](C)(O)[C@]1(C)O)[C@H]23 [MONOCROTALINE] = 222.4
• O=C1CN(/N=C/c2ccc([N+](=O)[O-])o2)C(=O)N1 [NITROFURANTOIN] = 200.8

====

# Species on record: Rattus norvegicus
# ASSAY_NAME: Open TG-GATES - Regimen: Single
# Type: toxicity, organism-based, Sprague-Dawley
# Parameters: regimen Single, gender Male, age 6 weeks
# RUN_CONDITIONS: in vivo, po, 0 mg/kg, 9 h, tissue Blood, route gavage, dose level Control
# Lym per record follows
MEASUREMENT_LABEL: Lym (%)

• OCCN1CCN(CCCN2c3ccccc3Sc3ccc(C(F)(F)F)cc32)CC1 = 77.6
• C=C(C)[C@H]1Cc2c(ccc3c2O[C@@H]2COc4cc(OC)c(OC)cc4[C@@H]2C3=O)O1 = 74.4
• Cc1ccc2cc3c(ccc4ccccc43)c3c2c1CC3 = 75.2

====

# Species: Rattus norvegicus
# ASSAY_NAME: Open TG-GATES - Regimen: Single
# Assay type: toxicity, organism-based, Sprague-Dawley
# Parameters: regimen Single, gender Male, age 6 weeks
# RUN_CONDITIONS: in vivo, po, 0 mg/kg, 9 h, tissue Plasma, route gavage, dose level Control
MEASUREMENT_LABEL: IP (mg/dL)

* C=C(C)[C@H]1Cc2c(ccc3c2O[C@@H]2COc4cc(OC)c(OC)cc4[C@@H]2C3=O)O1 | 10.2
* Cn1cc[nH]c1=S | 9.8
* C[C@H]1O[C@H](O[C@H]2[C@H](O)[C@@H](O)[C@@H](O[C@H]3[C@H](O)[C@@H](O)C(O)O[C@@H]3CO)O[C@@H]2CO)[C@H](O)[C@@H](O)[C@@H]1N[C@H]1C=C(CO)[C@@H](O)[C@H](O)[C@H]1O (stereo not given in full) | 10.2
* OCCN1CCN(CCCN2c3ccccc3Sc3ccc(C(F)(F)F)cc32)CC1 | 10.2
* CCOC(=O)C(C)(C)Oc1ccc(Cl)cc1 [CLOFIBRATE] | 10.2

====

# Species: Rattus norvegicus
# ASSAY_NAME: Open TG-GATES - Regimen: Daily Repeat
# Format: toxicity, organism-based, Sprague-Dawley
# Parameters: regimen Daily Repeat, gender Male, age 6 weeks
# RUN_CONDITIONS: in vivo, po, 0 mg/kg, […], tissue Plasma, route gavage, dose level Control, time 7 day
MEASUREMENT_LABEL: TG

- Cn1cc[nH]c1=S [METHIMAZOLE]: 126 mg/dL
- Cc1cccc(C)c1OCC(C)N (stereo not drawn) [MEXILETINE]: 113.4 mg/dL
- C=C(C)[C@H]1Cc2c(ccc3c2O[C@@H]2COc4cc(OC)c(OC)cc4[C@@H]2C3=O)O1 [ROTENONE]: 132.2 mg/dL
- O=[N+]([O-])c1ccc(O)c([N+](=O)[O-])c1 [2,4-DINITROPHENOL]: 162.4 mg/dL
- CCOC(=O)C(C)(C)Oc1ccc(Cl)cc1 [CLOFIBRATE]: 122 mg/dL
- O=C1CN(/N=C/c2ccc([N+](=O)[O-])o2)C(=O)N1 [NITROFURANTOIN]: 141 mg/dL
- OCCN1CCN(CCCN2c3ccccc3Sc3ccc(C(F)(F)F)cc32)CC1 [FLUPHENAZINE]: 101 mg/dL
- C[C@H]1O[C@H](O[C@H]2[C@H](O)[C@@H](O)[C@@H](O[C@H]3[C@H](O)[C@@H](O)C(O)O[C@@H]3CO)O[C@@H]2CO)[C@H](O)[C@@H](O)[C@@H]1N[C@H]1C=C(CO)[C@@H](O)[C@H](O)[C@H]1O (stereo partly drawn) [ACARBOSE]: 115.6 mg/dL

====

# Organism: Rattus norvegicus
# ASSAY_NAME: Open TG-GATES - Regimen: Single
# Format: toxicity, organism-based, Sprague-Dawley
# Set-up: regimen Single, gender Male, age 6 weeks
# RUN_CONDITIONS: in vivo, po, 0 mg/kg, 3 h, tissue Plasma, route gavage, dose level Control
# A/G per record follows
MEASUREMENT_LABEL: A/G

* C[C@H]1O[C@H](O[C@H]2[C@H](O)[C@@H](O)[C@@H](O[C@H]3[C@H](O)[C@@H](O)C(O)O[C@@H]3CO)O[C@@H]2CO)[C@H](O)[C@@H](O)[C@@H]1N[C@H]1C=C(CO)[C@@H](O)[C@H](O)[C@H]1O (stereo partly specified) [ACARBOSE] | 0.9
* Cc1cccc(C)c1OCC(C)N (stereo unspecified) [MEXILETINE] | 1.2
* O=[N+]([O-])c1ccc(O)c([N+](=O)[O-])c1 [2,4-DINITROPHENOL] | 2.4
* Cn1cc[nH]c1=S [METHIMAZOLE] | 1.3
* C[C@H]1C(=O)O[C@@H]2CCN3CC=C(COC(=O)[C@](C)(O)[C@]1(C)O)[C@H]23 [MONOCROTALINE] | 1.3
* CCOC(=O)C(C)(C)Oc1ccc(Cl)cc1 [CLOFIBRATE] | 1.6

====

# BUN per record follows
# Organism: Rattus norvegicus
# ASSAY_NAME: Open TG-GATES - Regimen: Daily Repeat
# Assay type: toxicity, organism-based, Sprague-Dawley
# Parameters: regimen Daily Repeat, gender Male, age 6 weeks
# RUN_CONDITIONS: in vivo, po, 0 mg/kg, […], tissue Plasma, route gavage, dose level Control, time 28 day
MEASUREMENT_LABEL: BUN (mg/dL)

* OCCN1CCN(CCCN2c3ccccc3Sc3ccc(C(F)(F)F)cc32)CC1 [FLUPHENAZINE] | 20.6
* O=C1CN(/N=C/c2ccc([N+](=O)[O-])o2)C(=O)N1 [NITROFURANTOIN] | 16.6
* C[C@H]1C(=O)O[C@@H]2CCN3CC=C(COC(=O)[C@](C)(O)[C@]1(C)O)[C@H]23 [MONOCROTALINE] | 18.8
